The origin of these recorded values is the supplement of paper PMC7125110.

B1: glmS ribozyme (parent)
chain: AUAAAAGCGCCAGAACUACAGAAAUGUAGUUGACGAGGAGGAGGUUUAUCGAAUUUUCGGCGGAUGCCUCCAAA

variants of: B1; experiment: self-cleavage kobs at 10000 uM GlcN6P; higher = faster cleavage; RNA array; settings: with glucosamine-6-phosphate
Variants at the floor of the assay were thinned out.
metric: self-cleavage kobs at 10000 uM GlcN6P

Sample answers from the record:
C58A G60A
< 1e-05 s⁻¹
G35C U54A
< 1e-05 s⁻¹
A42G G62A
< 1e-05 s⁻¹

Give measured self-cleavage kobs at 10000 uM GlcN6P for every item shown.
1. U31G G38C G40C G60C U69A C71A
2. U30A A39U G51A A64G

1: < 1e-05 s⁻¹; 2: < 1e-05 s⁻¹
